# maps each entry to its Fold change in RNA expression between the ON state and the OFF state
- System: Renilla luciferase RNA
- assay: Barcoded aptazyme variant library screen: un-cleaved Renilla luciferase RNA by barcode read counts, HEK293-T cells
- Format: cell-based
- experimental-parameters: un-cleaved Renilla luciferase RNA by barcode read counts; with 1 mM theophylline (ON) over without theophylline (OFF); HEK293-T cells; triplicate
measured-metric: Fold change in RNA expression between the ON state and the OFF state

{"molecule": "RA336 (nucleic acid, expressed or natural sequence) DNA: GCGCGTCCTGGATTCGCGGAAAGTGATACCAGCATCGTCTTGATGCCCTTGGCAGCACTACGCGTACATCCAGCTGACGAGTCCCAAATAGGACGAAACGCGC", "reported-measurement": 0.9}
{"molecule": "RA410 (nucleic acid, expressed or natural sequence) DNA: GCGCGTCCTGGATTCGCGGAAACGCGTACATCCAGCTGACGAGTCCCAGTGATACCAGCATCGTCTTGATGCCCTTGGCAGCACTAAATAGGACGAAACGCGC", "reported-measurement": 0.7}
{"molecule": "RA361 (nucleic acid, expressed or natural sequence) DNA: GCGCGTCCTGGATTCGCGGAAACGCGTACATCCAGCTGACGAGTCCCAAATAGGACGAAACGCCCGGAATACCAGCATCGTCTTGATGCCCTTGGAAGTCCGGGC", "reported-measurement": 0.8}
{"molecule": "RA386 (nucleic acid, expressed or natural sequence) DNA: GCGCGTCCTGGATTCGCGGAAACGCGTACATCCAGCTGACGGGAATACCAGCATCGTCTTGATGCCCTTGGAAGTCCAGTCCCAAATAGGACGAAACGCGC", "reported-measurement": 0.8}
{"molecule": "RA332 (nucleic acid, expressed or natural sequence) DNA: GCGCGTCCTGGATTCGCGGAAACGCGTACATCCAGCTGACGAGTCGGAATACCAGCATCGTCTTGATGCCCTTGGAAGTCCCCAAATAGGACGAAACGCGC", "reported-measurement": 0.9}
{"molecule": "RA360 (nucleic acid, expressed or natural sequence) DNA: GCAGAATACCAGCATCGTCTTGATGCCCTTGGAAGTCTGCGTCCTGGATTCGCGGAAACGCGTACATCCAGCTGACGAGTCCCAAATAGGACGAAACGCGC", "reported-measurement": 0.8}
{"molecule": "RA453 (nucleic acid, expressed or natural sequence) DNA: GCGCGTCCTGGATTCGCGGAAACGCGTACATCCAGCTGACGAGTCCCAAATAGGACGAAACAGAATACCAGCATCGTCTTGATGCCCTTGGAAGTCTGCGC", "reported-measurement": 0.5}
